Measurement Notes: Selectivity index, ratio of CC50 for African green monkey Vero cells to EC50 for HAV HM175 infected in African green monkey Vero cells
Format: toxicity
Conditions Used: Vero cells, read-out: Ratio CC50/EC50
Metric: selectivity ratio

INSERT INTO results (smiles_text, metric, test_result) VALUES
  ('NNc1nc2cc3ccccc3cc2c(=O)n1Cc1ccccc1', 'selectivity ratio', 10.5),
  ('O=c1c2cc3ccccc3cc2[nH]c(=S)n1CCc1ccccc1', 'selectivity ratio', 3.06),
  ('COc1cccc(CSc2nc3cc4ccccc4cc3c(=O)n2Cc2ccccc2)c1', 'selectivity ratio', 1.22),
  ('Cc1ccccc1CSc1nc2cc3ccccc3cc2c(=O)n1CCc1ccccc1', 'selectivity ratio', 1.24);
